Reported values: IC50 for Proto-oncogene tyrosine-protein kinase Src (Homo sapiens), one per item.
Numbers only, in nM.

// each compound listed below needs its IC50
1. CNS(=O)(=O)c1ccc2c(c1)/C(=C/c1[nH]c3c(c1CCCN1CCOCC1)CCCC3)C(=O)N2
2. CCS(=O)(=O)c1ccc2c(c1)/C(=C/c1[nH]c3c(c1CCCN1CCN(C(C)=O)CC1)CCCC3)C(=O)N2
3. CCS(=O)(=O)c1ccc2c(c1)/C(=C/c1[nH]c3c(c1CCC(=O)O)CCCC3)C(=O)N2
4. CCS(=O)(=O)Cc1ccc2c(c1)/C(=C/c1[nH]c3c(c1CCCN(C)C)CCCC3)C(=O)N2

1: 60; 2: 400; 3: 400; 4: 10000

----------
Reported values: pIC50 for Vascular endothelial growth factor receptor 2 (Homo sapiens), one per item.
Numbers only, as −log10 of the molar value.

Consider the worked cases shown below.
{"Smiles record": "CCS(=O)(=O)c1ccc2c(c1)/C(=C/c1[nH]c3c(c1CCCN1CCN(CC(=O)O)CC1)CCCC3)C(=O)N2", "Measured target": "Vascular endothelial growth factor receptor 2 (Homo sapiens)", "pIC50": 6.10}
{"Smiles record": "CCOC(=O)CN1CCN(CCCc2c(/C=C3\\C(=O)Nc4ccc(S(=O)(=O)NC)cc43)[nH]c3c2CCCC3)CC1", "Measured target": "Vascular endothelial growth factor receptor 2 (Homo sapiens)", "pIC50": 6.30}
{"Smiles record": "CNS(=O)(=O)c1ccc2c(c1)/C(=C/c1[nH]c3c(c1CCCN1CCN(CC(=O)O)CC1)CCCC3)C(=O)N2", "Measured target": "Vascular endothelial growth factor receptor 2 (Homo sapiens)", "pIC50": 6.40}
{"Smiles record": "CCS(=O)(=O)c1ccc2c(c1)/C(=C/c1[nH]c3c(c1CCCN1CCN(C)CC1)CCCC3)C(=O)N2", "Measured target": "Vascular endothelial growth factor receptor 2 (Homo sapiens)", "pIC50": 5.59}
{"Smiles record": "CNS(=O)(=O)c1ccc2c(c1)/C(=C/c1[nH]c3c(c1CCC(N)=O)CCCC3)C(=O)N2", "Measured target": "Vascular endothelial growth factor receptor 2 (Homo sapiens)", "pIC50": 6.30}

// each molecule listed below needs its pIC50
1. CCS(=O)(=O)c1ccc2c(c1)/C(=C/c1[nH]c3c(c1CN1CCOCC1)CCCC3)C(=O)N2
2. CNS(=O)(=O)c1ccc2c(c1)/C(=C/c1[nH]c3c(c1CN1CCOCC1)CCCC3)C(=O)N2
3. CNS(=O)(=O)c1ccc2c(c1)/C(=C/c1[nH]c3c(c1CCCN1CCOCC1)CCCC3)C(=O)N2
4. CCS(=O)(=O)c1ccc2c(c1)/C(=C/c1[nH]c3c(c1CCCN1CCN(CCO)CC1)CCCC3)C(=O)N2

7.00
7.22
5.64
6.40

----------
Reported values: IC50 for Platelet-derived growth factor receptor beta (Homo sapiens), one per item.
The answer consists of two parts: a number and, after it, its unit.

// each compound listed below needs its IC50
1. CCS(=O)(=O)c1ccc2c(c1)/C(=C/c1[nH]c3c(c1CCCN1CCN(CC(=O)O)CC1)CCCC3)C(=O)N2
2. CNS(=O)(=O)c1ccc2c(c1)/C(=C/c1[nH]c3c(c1CCCN1CCN(CC(=O)O)CC1)CCCC3)C(=O)N2
3. CNS(=O)(=O)c1ccc2c(c1)/C(=C/c1[nH]c3c(c1CCCN1CCOCC1)CCCC3)C(=O)N2
4. CNS(=O)(=O)c1ccc2c(c1)/C(=C/c1[nH]c3c(c1CCC(N)=O)CCCC3)C(=O)N2
5. CNS(=O)(=O)c1ccc2c(c1)/C(=C/c1[nH]c3c(c1CCCN(C)C)CCCC3)C(=O)N2
6. CNS(=O)(=O)c1ccc2c(c1)/C(=C/c1[nH]c3c(c1CCCN1CCN(C)CC1)CCCC3)C(=O)N2

["13 µM", "8 µM", "18 µM", "6.6 µM", "3.3 µM", "10 µM"]

----------
Reported values: pIC50 for Proto-oncogene tyrosine-protein kinase Src (Homo sapiens), one per item.
Numbers only, as −log10 of the molar value.

{"Smiles record": "CNS(=O)(=O)c1ccc2c(c1)/C(=C/c1[nH]c3c(c1CCCN1CCNCC1)CCCC3)C(=O)N2", "pIC50": 6.70}
{"Smiles record": "COc1ccc2c(c1)/C(=C/c1[nH]c3c(c1CCCN(C)C)CCCC3)C(=O)N2", "pIC50": 6.00}
{"Smiles record": "CCS(=O)(=O)c1ccc2c(c1)/C(=C/c1[nH]c3c(c1CCCN1CCOCC1)CCCC3)C(=O)N2", "pIC50": 6.82}

// each compound listed below needs its pIC50
1. CNS(=O)(=O)c1ccc2c(c1)/C(=C/c1[nH]c3c(c1CCCN1CCN(C(C)=O)CC1)CCCC3)C(=O)N2
2. CN(C)CCCc1c(/C=C2\C(=O)Nc3ccc(F)cc32)[nH]c2c1CCCC2
3. CN(C)CCCc1c(/C=C2\C(=O)Nc3ccc(S(C)(=O)=O)cc32)[nH]c2c1CCCC2
4. CN(C)CCCc1c(/C=C2\C(=O)Nc3ccccc32)[nH]c2c1CCCC2
5. CNS(=O)(=O)c1ccc2c(c1)/C(=C/c1[nH]c3c(c1CN1CCOCC1)CCCC3)C(=O)N2
6. CC(C)NS(=O)(=O)c1ccc2c(c1)/C(=C/c1[nH]c3c(c1CCCN(C)C)CCCC3)C(=O)N2
7. CN(C)CCCc1c(/C=C2\C(=O)Nc3ccc(S(=O)(=O)Nc4ccccc4Cl)cc32)[nH]c2c1CCCC2
8. CCS(=O)(=O)c1ccc2c(c1)/C(=C/c1[nH]c3c(c1CCCN1CCC(O)CC1)CCCC3)C(=O)N2

6.52
6.30
6.52
5.48
8.00
6.64
6.52
7.15

// each compound listed below needs its pIC50
1. CNS(=O)(=O)c1ccc2c(c1)/C(=C/c1[nH]c3c(c1CCCN1CCN(CCO)CC1)CCCC3)C(=O)N2
2. CCS(=O)(=O)c1ccc2c(c1)/C(=C/c1[nH]c3c(c1CCC(=O)N1CCN(C)CC1)CCCC3)C(=O)N2
3. CNS(=O)(=O)c1ccc2c(c1)/C(=C/c1[nH]c3c(c1CCC(N)=O)CCCC3)C(=O)N2
4. CCS(=O)(=O)c1ccc2c(c1)/C(=C/c1[nH]c3c(c1CCCN1CCN(CC(=O)O)CC1)CCCC3)C(=O)N2
5. CNS(=O)(=O)c1ccc2c(c1)/C(=C/c1[nH]c3c(c1CCC(=O)N1CCN(C)CC1)CCCC3)C(=O)N2
6. CCS(=O)(=O)c1ccc2c(c1)/C(=C/c1[nH]c3c(c1CCCN1CCN(C)CC1)CCCC3)C(=O)N2

[7.52, 6.30, 7.52, 7.15, 6.52, 6.68]

----------
Reported values: pIC50 for Proto-oncogene tyrosine-protein kinase Src (Homo sapiens, UniProt P12931), one per item.
Give bare numbers, as −log10 of the molar value.

// each molecule listed below needs its pIC50
1. CN(C)CCCc1c(/C=C2\C(=O)Nc3ccc(S(=O)(=O)NCc4ccc(F)cc4)cc32)[nH]c2c1CCCC2
2. CNS(=O)(=O)c1ccc2c(c1)/C(=C/c1[nH]c3c(c1CCCN1CCN(CC(=O)O)CC1)CCCC3)C(=O)N2
3. CCOC(=O)N1CCN(CCCc2c(/C=C3\C(=O)Nc4ccc(S(=O)(=O)NC)cc43)[nH]c3c2CCCC3)CC1

5.92
7.70
6.52

----------
Please provide measured IC50 for the entries that follow.
Target: Tyrosine-protein kinase Lck (Homo sapiens, UniProt P06239)
Sequence (P06239 whole entry): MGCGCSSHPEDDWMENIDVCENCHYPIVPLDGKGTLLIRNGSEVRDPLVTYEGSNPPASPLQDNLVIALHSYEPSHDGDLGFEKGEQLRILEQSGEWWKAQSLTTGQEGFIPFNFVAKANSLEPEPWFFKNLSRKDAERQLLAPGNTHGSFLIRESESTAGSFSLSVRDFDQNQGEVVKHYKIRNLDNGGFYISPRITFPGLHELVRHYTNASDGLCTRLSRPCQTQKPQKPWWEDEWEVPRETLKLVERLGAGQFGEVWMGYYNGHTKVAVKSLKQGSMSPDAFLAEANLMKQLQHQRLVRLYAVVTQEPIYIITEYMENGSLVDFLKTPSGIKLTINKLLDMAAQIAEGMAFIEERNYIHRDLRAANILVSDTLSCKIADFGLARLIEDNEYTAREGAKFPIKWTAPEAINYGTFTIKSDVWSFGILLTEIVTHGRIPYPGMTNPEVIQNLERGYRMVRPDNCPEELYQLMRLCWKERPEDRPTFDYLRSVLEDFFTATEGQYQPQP
Answers are plain numbers, in nM.

{"Smiles record": "CNS(=O)(=O)c1ccc2c(c1)/C(=C/c1[nH]c3c(c1CN1CCOCC1)CCCC3)C(=O)N2", "Unit abbreviation": "nM", "Meas value": 80}

// each molecule listed below needs its IC50
1. CCS(=O)(=O)c1ccc2c(c1)/C(=C/c1[nH]c3c(c1CCCN(C)C)CCCC3)C(=O)N2
2. CCS(=O)(=O)c1ccc2c(c1)/C(=C/c1[nH]c3c(c1CCCN1CCC(O)CC1)CCCC3)C(=O)N2
3. CCS(=O)(=O)c1ccc2c(c1)/C(=C/c1[nH]c3c(c1CCCN1CCN(CCO)CC1)CCCC3)C(=O)N2
4. CNS(=O)(=O)c1ccc2c(c1)/C(=C/c1[nH]c3c(c1CCC(N)=O)CCCC3)C(=O)N2
5. CCOC(=O)CN1CCN(CCCc2c(/C=C3\C(=O)Nc4ccc(S(=O)(=O)NC)cc43)[nH]c3c2CCCC3)CC1

1. 200
2. 700
3. 500
4. 100
5. 600

The reported IC50 of the molecule `CCS(=O)(=O)c1ccc2c(c1)/C(=C/c1[nH]c3c(c1CCCN1CCN(C)CC1)CCCC3)C(=O)N2` was 600
